Source of measurements: patent US9346761B2

# Measurement target: Full-length human PRMT1 isoform 1 (Homo sapiens, UniProt Q99873)
# Construct: GST-tagged PRMT1
# Sequence (Q99873 with tags, fused parts or gaps): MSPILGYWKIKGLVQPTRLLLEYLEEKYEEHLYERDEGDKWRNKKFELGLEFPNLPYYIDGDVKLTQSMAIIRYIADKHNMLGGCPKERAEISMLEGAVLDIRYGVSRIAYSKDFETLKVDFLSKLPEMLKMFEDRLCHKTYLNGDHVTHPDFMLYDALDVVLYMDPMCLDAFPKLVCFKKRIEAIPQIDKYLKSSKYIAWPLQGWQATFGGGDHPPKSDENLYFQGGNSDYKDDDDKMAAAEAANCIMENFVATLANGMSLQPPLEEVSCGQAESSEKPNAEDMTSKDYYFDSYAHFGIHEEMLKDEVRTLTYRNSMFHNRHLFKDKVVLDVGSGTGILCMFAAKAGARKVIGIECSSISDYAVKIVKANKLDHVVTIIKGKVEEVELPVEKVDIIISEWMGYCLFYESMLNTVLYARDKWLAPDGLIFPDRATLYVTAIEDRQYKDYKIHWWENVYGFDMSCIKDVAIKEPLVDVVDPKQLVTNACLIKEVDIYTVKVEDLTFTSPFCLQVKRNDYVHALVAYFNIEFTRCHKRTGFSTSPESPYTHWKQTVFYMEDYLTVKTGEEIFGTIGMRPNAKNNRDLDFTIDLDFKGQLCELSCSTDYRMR
# Measurement protocol: PRMT1 biochemical assay (3H-SAM Flashplate, peptide substrate)
Would you kindly list IC50 for each of these compounds?

{"Chemical string": "CCN(C)C(=O)c1cccc(-c2n[nH]cc2CN(C)CCN)c1", "Measurement target": "Full-length human PRMT1 isoform 1 (Homo sapiens, UniProt Q99873)", "Measured result": "1010 to 3000 nM"}
{"Chemical string": "CN(CCN)Cc1c[nH]nc1-c1ccc2c(c1)OCC(=O)N2C", "Measurement target": "Full-length human PRMT1 isoform 1 (Homo sapiens, UniProt Q99873)", "Measured result": "101 to 1000 nM"}
{"Chemical string": "Cc1ccc(C#N)cc1-c1n[nH]cc1CN(C)CCN", "Measurement target": "Full-length human PRMT1 isoform 1 (Homo sapiens, UniProt Q99873)", "Measured result": "1010 to 3000 nM"}
{"Chemical string": "CN(CCN)Cc1c[nH]nc1-c1cc(F)ccc1Cl", "Measurement target": "Full-length human PRMT1 isoform 1 (Homo sapiens, UniProt Q99873)", "Measured result": "101 to 1000 nM"}

Turning to the following compound.
Data request: GET /values?readout=IC50&item= `CC(C)Oc1ccc(-c2n[nH]cc2CN(C)CCN)cc1F`
Data returned: < 100 nM

====

Would you kindly list IC50 for each of these molecules?
# Measurement target: Full-length human PRMT1 isoform 1 (Homo sapiens, UniProt Q99873)
# Construct: GST-tagged PRMT1
# Measurement protocol: PRMT1 biochemical assay (3H-SAM Flashplate, peptide substrate)

Observe how each entry below is paired with its result.
{"Chemical string": "CNCCN(C)Cc1cn(C2CC2)nc1-c1ccc(F)cc1", "IC50": "1010 to 3000 nM"}
{"Chemical string": "CNCCN(C)Cc1cn(C)nc1-c1ccc(OC(C)C)cc1", "IC50": "< 100 nM"}
{"Chemical string": "CNCCN(C)Cc1n[nH]c(C)c1-c1ccc(OC(C)C)cc1", "IC50": "< 100 nM"}
{"Chemical string": "CNCCN(C)Cc1cn(C)nc1-c1ccc(OC(C)C)c(Cl)c1", "IC50": "< 100 nM"}

Data request: GET /values?readout=IC50&item= `CNCCN(C)Cc1cn(Cc2ccccn2)nc1-c1ccc(OC(C)C)cc1`
Data returned: 101 to 1000 nM

====

# Measurement target: Human CARM1 (PRMT4) (Homo sapiens, UniProt Q86X55)
# Sequence (Q86X55 with tags, fused parts or gaps isoform Q86X55-1): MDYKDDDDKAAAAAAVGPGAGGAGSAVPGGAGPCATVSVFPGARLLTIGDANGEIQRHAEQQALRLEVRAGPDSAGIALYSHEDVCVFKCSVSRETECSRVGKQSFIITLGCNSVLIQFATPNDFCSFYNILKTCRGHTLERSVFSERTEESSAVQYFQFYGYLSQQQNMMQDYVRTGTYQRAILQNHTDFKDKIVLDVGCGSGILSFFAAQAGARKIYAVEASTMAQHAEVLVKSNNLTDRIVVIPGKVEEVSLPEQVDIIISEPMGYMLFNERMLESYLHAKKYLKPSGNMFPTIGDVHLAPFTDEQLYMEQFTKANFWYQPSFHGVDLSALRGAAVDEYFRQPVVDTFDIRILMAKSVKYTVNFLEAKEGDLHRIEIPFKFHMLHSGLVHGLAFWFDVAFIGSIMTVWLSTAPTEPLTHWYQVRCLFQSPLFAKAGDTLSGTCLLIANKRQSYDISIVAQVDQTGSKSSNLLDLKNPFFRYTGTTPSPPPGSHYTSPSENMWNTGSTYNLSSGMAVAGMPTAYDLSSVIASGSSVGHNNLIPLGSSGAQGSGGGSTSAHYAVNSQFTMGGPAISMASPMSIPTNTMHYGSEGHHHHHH
pIC50: −log10 of the molar value.
Measured metric: pIC50

Observe how each entry below is paired with its result.
{"Chemical string": "CNCCN(C)Cc1cn(Cc2ccccn2)nc1-c1ccc(OC(C)C)cc1", "pIC50": "5.52 to 6.00"}
{"Chemical string": "CN(CCN)Cc1c[nH]nc1-c1cccc(Cl)c1F", "pIC50": "5.52 to 6.00"}

Please supply pIC50 for each of the following items, keeping them in order.
1. CNCCN(C)Cc1cn(Cc2cccnc2)nc1-c1ccc(OC(C)C)cc1
2. CN(CCN)Cc1c[nH]nc1-c1cc(Cl)cc(Cl)c1
3. CN(CCN)Cc1c[nH]nc1-c1cccc(Cl)c1

Data returned:
1: 5.52 to 6.00; 2: 6.00 to 7.00; 3: 6.00 to 7.00

====

Would you kindly list IC50 for each of these compounds?
# Measurement target: UniProt Q96LA8

Observe how each entry below is paired with its result.
{"Chemical string": "COc1cc(-c2n[nH]cc2CN(C)CCN)ccc1F", "IC50": "< 100 nM"}
{"Chemical string": "CNCCN(C)Cc1n[nH]cc1-c1ccc(Oc2cccc(C(=O)NC)c2)cc1", "IC50": "< 100 nM"}
{"Chemical string": "CNCCN(C)Cc1c[nH]nc1-c1ccccc1-c1ccccc1", "IC50": "3010 to 10000 nM"}

Please supply IC50 for each of the following items, keeping them in order.
1. COc1ccc(Cl)cc1-c1n[nH]cc1CN(C)CCN
2. CN(CCN)Cc1c[nH]nc1-c1cc(Cl)cc(Cl)c1
3. CC(C)Oc1ccc(-c2c(CN(C)CCN)cnn2C)cc1
4. CN(CCN)Cc1c[nH]nc1-c1cccc(C#N)c1
5. CN(CCN)Cc1c[nH]nc1-c1ccccc1F
6. CN(CCN)Cc1cn(CC2CCOCC2)nc1-c1ccc(F)cc1

Data returned:
1. 101 to 1000 nM
2. < 100 nM
3. < 100 nM
4. < 100 nM
5. < 100 nM
6. 1010 to 3000 nM

Please supply IC50 for each of the following items, keeping them in order.
1. CN(CCN)Cc1c[nH]nc1-c1ccc(Cl)c(F)c1
2. CNCCN(C)Cc1cn(Cc2ccccn2)nc1-c1ccc(OC(C)C)cc1
3. Cc1cc(F)ccc1-c1n[nH]cc1CN(C)CCN
4. COCCCOc1ccc(-c2n[nH]cc2CN(C)CCN)cc1
5. COc1cccc(-c2n[nH]cc2CN(C)CCN)c1

Data returned:
1: < 100 nM; 2: 101 to 1000 nM; 3: < 100 nM; 4: < 100 nM; 5: < 100 nM

====

# Measurement target: Full-length human PRMT1 isoform 1 (Homo sapiens)
# Construct: GST-tagged PRMT1
# Measurement protocol: PRMT1 biochemical assay (3H-SAM Flashplate, peptide substrate)
Measured metric: IC50

Observe how each entry below is paired with its result.
{"Chemical string": "CN(CCN)Cc1c[nH]nc1-c1ccccc1", "IC50": "101 to 1000 nM"}
{"Chemical string": "CC(C)N(CCN)Cc1c[nH]nc1-c1ccc(F)cc1", "IC50": "101 to 1000 nM"}
{"Chemical string": "CN(CCN)Cc1c[nH]nc1-c1ccc(Cl)cc1F", "IC50": "< 100 nM"}
{"Chemical string": "CNCCN(C)Cc1cn(CC(N)=O)nc1-c1ccc(OC(C)C)cc1", "IC50": "101 to 1000 nM"}
{"Chemical string": "CNCCN(C)Cc1cn(C2CCCC2)nc1-c1ccc(OC(C)C)cc1", "IC50": "< 100 nM"}
{"Chemical string": "CNCCN(C)Cc1n[nH]cc1-c1ccc(Oc2cccc(F)c2)cc1", "IC50": "< 100 nM"}
{"Chemical string": "CN(CCN)Cc1c[nH]nc1-c1ccc(C2CCOCC2)cc1", "IC50": "< 100 nM"}
{"Chemical string": "CNCCN(C)Cc1c[nH]nc1-c1cc(Cl)ccc1OC", "IC50": "3010 to 10000 nM"}

Please supply IC50 for each of the following items, keeping them in order.
1. CN(CCN)Cc1c[nH]nc1-c1cccc(Cl)c1
2. CNCCN(C)Cc1c(-c2ccc(OCCCOC)cc2)cnn1C

Data returned:
["< 100 nM", "> 10000 nM"]

====

pIC50: −log10 of the molar value.
Full-length human PRMT6 (Homo sapiens) data, read-out pIC50
Sequence (Q96LA8 with tags, fused parts or gaps): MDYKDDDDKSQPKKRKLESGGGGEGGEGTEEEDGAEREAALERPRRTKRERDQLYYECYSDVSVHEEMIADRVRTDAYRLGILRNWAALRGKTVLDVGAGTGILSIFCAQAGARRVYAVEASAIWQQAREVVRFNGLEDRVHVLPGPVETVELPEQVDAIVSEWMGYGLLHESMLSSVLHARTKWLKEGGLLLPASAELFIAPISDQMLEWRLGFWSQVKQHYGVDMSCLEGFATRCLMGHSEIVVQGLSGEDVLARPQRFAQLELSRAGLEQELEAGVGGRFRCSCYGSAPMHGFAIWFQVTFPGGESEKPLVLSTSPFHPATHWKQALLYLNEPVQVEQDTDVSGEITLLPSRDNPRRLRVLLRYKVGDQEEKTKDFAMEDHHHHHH

Observe how each entry below is paired with its result.
{"Compound": "CNCCN(C)Cc1c[nH]nc1-c1cccc(N)c1", "Measured metric": "pIC50", "Measured result": "> 7.00"}
{"Compound": "CNCCN(C)Cc1n[nH]cc1-c1ccc(Oc2cccc(OC)c2)cc1", "Measured metric": "pIC50", "Measured result": "> 7.00"}
{"Compound": "CNCCN(C)Cc1c[nH]nc1-c1ccc(OC)c(F)c1", "Measured metric": "pIC50", "Measured result": "> 7.00"}
{"Compound": "CN(CCN)Cc1n[nH]cc1-c1ccc(OC2CC2)cc1", "Measured metric": "pIC50", "Measured result": "> 7.00"}
{"Compound": "CNCCN(C)Cc1cn(CCC(O)CO)nc1-c1ccc(F)cc1 (centres unmarked)", "Measured metric": "pIC50", "Measured result": "6.00 to 7.00"}
{"Compound": "CNCCN(C)Cc1cn(Cc2ccccc2)nc1-c1ccc(OC(C)C)cc1", "Measured metric": "pIC50", "Measured result": "> 7.00"}

Please supply pIC50 for each of the following items, keeping them in order.
1. CN(CCN)Cc1c[nH]nc1-c1cc(F)cc(F)c1
2. CN(CCN)Cc1c[nH]nc1-c1ccc(C(F)(F)F)cc1Cl
3. CCNCCN(C)Cc1c[nH]nc1-c1ccc(F)cc1
4. CNCCN(C)Cc1c[nH]nc1-c1cc(CC(C)C)cc(CC(C)C)c1
5. Cc1cc(-c2n[nH]cc2CN(C)CCN)cc(C)c1OC(C)C
6. CNCCN(C)Cc1c[nH]nc1-c1ccc(Oc2ccccc2)cc1

Data returned:
> 7.00
> 7.00
> 7.00
6.00 to 7.00
6.00 to 7.00
> 7.00

Please supply pIC50 for each of the following items, keeping them in order.
1. CNCCN(C)Cc1n[nH]cc1-c1cc(CC(C)C)cc(CC(C)C)c1
2. COc1ccc(-c2n[nH]cc2CN(C)CCN)cc1Cl
3. CNCCN(C)Cc1n[nH]cc1-c1ccc(Oc2cccc(F)c2)cc1
4. COc1ccc(-c2n[nH]cc2CN(C)CCN)cc1F
5. CC(C)N(CCN)Cc1c[nH]nc1-c1ccc(F)cc1
6. CNCCN(C)Cc1n[nH]cc1-c1ccc(OC(C)C)c(F)c1
7. CNCCN(C)Cc1c[nH]nc1-c1ccc(OCCCO)cc1
8. Cc1ccc(Cl)c(-c2n[nH]cc2CN(C)CCN)c1

Data returned:
1: 6.00 to 7.00; 2: > 7.00; 3: > 7.00; 4: > 7.00; 5: 5.52 to 6.00; 6: > 7.00; 7: > 7.00; 8: 6.00 to 7.00
